Listed next: entries and their corresponding AC50.
# study-target: Cytochrome P450 2C19 (Homo sapiens, UniProt P33261)
# Sequence (P33261 whole entry): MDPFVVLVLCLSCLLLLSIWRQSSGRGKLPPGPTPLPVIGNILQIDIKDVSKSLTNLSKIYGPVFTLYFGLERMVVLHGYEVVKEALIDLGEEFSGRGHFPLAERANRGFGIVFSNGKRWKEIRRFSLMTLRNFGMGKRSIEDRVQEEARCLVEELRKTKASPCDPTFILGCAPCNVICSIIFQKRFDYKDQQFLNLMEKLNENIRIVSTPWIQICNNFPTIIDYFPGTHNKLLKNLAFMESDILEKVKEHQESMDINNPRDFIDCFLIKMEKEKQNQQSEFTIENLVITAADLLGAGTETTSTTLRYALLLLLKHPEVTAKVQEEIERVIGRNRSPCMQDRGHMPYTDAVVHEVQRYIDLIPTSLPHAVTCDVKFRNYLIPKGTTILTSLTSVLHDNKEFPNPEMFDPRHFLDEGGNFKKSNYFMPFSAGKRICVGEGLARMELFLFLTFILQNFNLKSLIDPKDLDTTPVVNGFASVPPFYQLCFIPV
# test-name: Cytochrome panel assay with activity outcomes. Panel member name: p450-cyp2c19 Compounds with AC50 equal or less than 10 uM are considered active
# Assay type: functional
# condition-details: read-out: AC50

Consider the reported AC50 for these molecules:
INSERT INTO results (molecule, outcome_measure, recorded_result) VALUES
  ('C[N+](C)(C)CC[N+]1(C)Cc2c(Cl)c(Cl)c(Cl)c(Cl)c2C1', 'AC50', '5.01 µM (inconclusive)'),
  ('COc1ccc(NC(=S)N2CCN(C/C=C/c3ccccc3)CC2)cc1OC', 'AC50', '15.8 µM (inconclusive)'),
  ('COc1cccc(Cn2c(=O)cnc3cncnc32)c1', 'AC50', '25.1 µM (inconclusive)'),
  ('COc1ccc(N2C(=O)NC3CC2(C)Oc2ccccc23)cc1OC (stereo not drawn)', 'AC50', '7.94 µM (inconclusive)'),
  ('Cc1ccc(C(C(=O)NCc2ccco2)N(C(=O)CNC(=O)c2cccs2)c2ccc(C)cc2)cc1 (stereo not drawn)', 'AC50', '2.51 µM (inconclusive)');

Notebook: pull reported AC50 for Cytochrome P450 2C19 (Homo sapiens, UniProt P33261), entry Cc1ccc(C(=O)NNC(=O)C2CCCN(c3ncccn3)C2)cc1 (stereo not drawn)
39.8 µM (inconclusive)

Param readout= AC50; system= Cytochrome P450 2C19 (Homo sapiens, UniProt P33261); entry= "O=c1c(-c2ccccc2)nc2cncnc2n1C1CC1" ; returns value.
3.16 µM (inconclusive)

Tell me reported AC50 for CCc1ccccc1NC(=O)NC1CC2CCC(C1)N2Cc1cccs1 (stereo not drawn) , tested with Cytochrome P450 2C19 (Homo sapiens, UniProt P33261).
17.8 µM (inconclusive)

Give AC50 (Cytochrome P450 2C19 (Homo sapiens, UniProt P33261)) of the following molecule: CCC/C=C(\CCC)C(NP(=O)(c1ccccc1)c1ccccc1)c1ccc(C(F)(F)F)cc1 (stereo not drawn)
39.8 µM (inconclusive)

Hello, I am looking for reported AC50 with Cytochrome P450 2C19 (Homo sapiens, UniProt P33261) for "c1ccc(N2CCCC3(CCNCC3)C2)nc1" . Could you help?
20 µM (inconclusive)

For Cytochrome P450 2C19 (Homo sapiens, UniProt P33261), provide AC50 of Cc1ccc(-c2ccc(CCC(=O)O)n2CC2CCCO2)cc1 (stereo not drawn) please.
14.1 µM (inconclusive)

Identify the measured AC50 of CC(=O)NC1C(OCCOc2ccc(Cl)cc2Cl)OC(COC(C)=O)C(OC(C)=O)C1OC(C)=O (stereo not drawn) for Cytochrome P450 2C19 (Homo sapiens, UniProt P33261).
15.8 µM (inconclusive)

Item "C#C[C@@]1(O)CC[C@@H]2[C@@H]3CCC4=CC(=O)CC[C@@]4(C)[C@H]3CC[C@]21C" with Cytochrome P450 2C19 (Homo sapiens, UniProt P33261) - AC50?
0.501 µM (inconclusive)

What is its AC50 for Cytochrome P450 2C19 (Homo sapiens, UniProt P33261)? Entry: "COC(=O)[C@@]1(Cc2ccc(F)cc2)[C@H]2c3cc(C(=O)N(C)C)n(CCc4ccccn4)c3C[C@H]2CN1C(=O)c1ccccc1"
39.8 µM (inconclusive)
